# test method notes: Acute toxicity in PO dosed Wistar albino rat measured for 14 days
# Format: organism-based
# experimental conditions: in vivo, time 14 day
property label: LD50 at 336 h (mg/kg)

O=C(Cc1cn(-c2ccccc2)nc1O)Nc1ccccc1-c1cc(-c2ccc(Br)cc2)n(-c2ccccc2)n1 = 2000

---

# tgt: Epidermal growth factor receptor (Homo sapiens)
# Sequence (P00533 whole entry): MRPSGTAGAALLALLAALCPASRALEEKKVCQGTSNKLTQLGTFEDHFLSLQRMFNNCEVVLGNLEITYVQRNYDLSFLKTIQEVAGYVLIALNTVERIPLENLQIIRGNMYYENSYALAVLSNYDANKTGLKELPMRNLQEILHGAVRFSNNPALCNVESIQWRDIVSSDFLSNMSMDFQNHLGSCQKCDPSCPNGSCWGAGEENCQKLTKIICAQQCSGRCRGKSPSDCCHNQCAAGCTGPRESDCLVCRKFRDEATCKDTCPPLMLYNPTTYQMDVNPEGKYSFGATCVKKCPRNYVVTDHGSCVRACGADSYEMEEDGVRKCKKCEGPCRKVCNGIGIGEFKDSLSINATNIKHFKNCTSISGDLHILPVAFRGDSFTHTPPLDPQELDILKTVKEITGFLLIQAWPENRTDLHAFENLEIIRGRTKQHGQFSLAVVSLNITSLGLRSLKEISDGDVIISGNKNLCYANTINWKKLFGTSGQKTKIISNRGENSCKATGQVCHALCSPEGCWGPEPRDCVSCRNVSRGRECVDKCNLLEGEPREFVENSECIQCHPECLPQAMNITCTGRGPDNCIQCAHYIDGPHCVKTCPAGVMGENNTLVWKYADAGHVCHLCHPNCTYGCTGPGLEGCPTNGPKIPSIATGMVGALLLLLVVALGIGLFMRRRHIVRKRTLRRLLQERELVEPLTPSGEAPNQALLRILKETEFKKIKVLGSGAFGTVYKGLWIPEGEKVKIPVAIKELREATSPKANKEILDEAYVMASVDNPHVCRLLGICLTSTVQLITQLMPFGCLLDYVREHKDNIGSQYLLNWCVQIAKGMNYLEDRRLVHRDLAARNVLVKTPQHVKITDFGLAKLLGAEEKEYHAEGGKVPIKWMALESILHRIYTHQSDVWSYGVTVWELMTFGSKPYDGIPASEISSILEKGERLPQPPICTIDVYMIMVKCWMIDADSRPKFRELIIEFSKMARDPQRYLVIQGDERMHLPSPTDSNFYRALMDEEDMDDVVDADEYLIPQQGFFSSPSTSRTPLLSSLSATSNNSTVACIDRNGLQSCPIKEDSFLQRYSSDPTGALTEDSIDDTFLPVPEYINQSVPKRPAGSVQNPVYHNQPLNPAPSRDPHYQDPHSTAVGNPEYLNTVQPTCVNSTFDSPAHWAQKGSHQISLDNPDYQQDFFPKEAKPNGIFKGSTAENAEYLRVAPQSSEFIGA
# test method notes: Inhibition of recombinant EGFR (unknown origin) expressed in baculovirus incubated for 10 mins by europium-labeled antiphosphotyrosine/enhancement solution based assay
property label: IC50 (nM)

Cc1ccc(/C=N/NC(=O)CNc2nc(-c3ccccc3)c(-c3ccccc3)s2)cc1 = 200

---

Protein target, amino acids: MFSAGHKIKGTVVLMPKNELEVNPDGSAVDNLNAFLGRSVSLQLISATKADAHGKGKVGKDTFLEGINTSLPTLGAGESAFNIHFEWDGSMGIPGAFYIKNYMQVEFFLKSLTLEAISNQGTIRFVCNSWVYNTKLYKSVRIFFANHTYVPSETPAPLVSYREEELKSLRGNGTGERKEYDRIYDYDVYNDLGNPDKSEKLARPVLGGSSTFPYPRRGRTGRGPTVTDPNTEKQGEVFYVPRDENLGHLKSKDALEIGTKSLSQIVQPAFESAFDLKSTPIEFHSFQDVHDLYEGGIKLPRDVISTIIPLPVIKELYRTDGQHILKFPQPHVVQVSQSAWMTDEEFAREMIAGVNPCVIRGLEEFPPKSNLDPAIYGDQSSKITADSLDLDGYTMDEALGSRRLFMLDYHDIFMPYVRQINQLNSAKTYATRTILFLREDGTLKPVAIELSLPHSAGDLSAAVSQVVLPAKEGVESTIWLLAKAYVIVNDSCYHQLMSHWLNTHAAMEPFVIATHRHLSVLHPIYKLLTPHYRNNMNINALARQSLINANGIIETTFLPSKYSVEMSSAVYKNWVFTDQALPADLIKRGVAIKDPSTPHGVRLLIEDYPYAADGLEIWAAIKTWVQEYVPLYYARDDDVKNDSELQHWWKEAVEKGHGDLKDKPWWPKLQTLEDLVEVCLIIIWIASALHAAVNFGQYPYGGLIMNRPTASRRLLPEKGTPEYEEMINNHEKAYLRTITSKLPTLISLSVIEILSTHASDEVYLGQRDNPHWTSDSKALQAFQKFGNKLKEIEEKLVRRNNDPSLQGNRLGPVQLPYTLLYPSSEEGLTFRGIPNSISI
property label: IC50 (µM)

COCc1nc2ccc3occc3c2o1 = 65.4

---

# test method notes: Inhibition of soy 15-LOX enzyme immunoassay
# Parameters: species or system Glycine max
pIC50: −log10 of the molar value.
property label: pIC50

Cc1ccc(Cl)c(Nc2ccccc2C(=O)O)c1Cl [MECLOFENAMATE SODIUM] = 5.25

---

# System: RAW264.7
# test method notes: Anti-inflammatory against LPS induced mouse RAW 264.7 cells assessed as inhibition of NO measured for 24 hrs by ELISA analysis
# Assay type: functional, cell-based
# experimental conditions: RAW264.7, 24 h
property label: IC50 (µM)

CN(C)c1cccc2c(S(=O)(=O)Oc3cccc4oc(=O)[nH]c34)cccc12 = 17.7
